# target_or_system: Nuclear receptor coactivator 3 (Homo sapiens)
# assay_name: NCOA3 reporter inhibition potency – cell-based, luminescence, dose response (AID 602166);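 also: potency for reduction of SRC3 reporter signal so compounds are inhibitors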
# condition_description: SRC3 luciferase reporter cell assay
Active and inactive are the calls of the source. No rule for the calls is given here.
measure: IC50

>  <compound>
Cc1cccc(CN2CCN(C(=O)CCl)CC2)c1

>  <target_or_system>
Nuclear receptor coactivator 3 (Homo sapiens)

>  <measure>
IC50

>  <recorded_measurement>
> 35.9 µM (inactive)

$$$$
>  <compound>
COc1cc([C@@H]2c3cc4c(cc3[C@@H](O[C@@H]3O[C@@H]5CO[C@@H](C)O[C@H]5[C@H](O)[C@H]3O)[C@H]3COC(=O)[C@H]23)OCO4)cc(OC)c1O

>  <target_or_system>
Nuclear receptor coactivator 3 (Homo sapiens)

>  <measure>
IC50

>  <recorded_measurement>
2.48 µM

$$$$
>  <compound>
N#Cc1c2ccc(O)cc2n2ccccc12

>  <target_or_system>
Nuclear receptor coactivator 3 (Homo sapiens)

>  <measure>
IC50

>  <recorded_measurement>
3.41 µM

$$$$
>  <compound>
O=c1[nH]c2ccccc2n1C1CCN(C(c2ccccc2)c2nnnn2-c2ccc3c(c2)OCCO3)CC1 (stereo not drawn)

>  <target_or_system>
Nuclear receptor coactivator 3 (Homo sapiens)

>  <measure>
IC50

>  <recorded_measurement>
inactive

$$$$
>  <compound>
O=C(CCl)N(c1ccccc1)C1CCCCC1

>  <target_or_system>
Nuclear receptor coactivator 3 (Homo sapiens)

>  <measure>
IC50

>  <recorded_measurement>
8.7 µM

$$$$

Let me know recorded IC50 for Cc1nc([N+](=O)[O-])c(Sc2nc3ccccc3n2C)n1Cc1ccccc1 , thanks.
inactive

Identify measured IC50 corresponding to COc1cc2c(c(OC)c1OC)-c1ccc(SC)c(=O)cc1C(NC=O)CC2 (stereo not drawn)
inactive

For the compound COCCNC(=O)c1cc(-c2ccccn2)nc2ccc(S(=O)(=O)N3CCC(C)CC3)cc12 , give its measured IC50 value.
> 35.9 µM (inactive)

====

# target_or_system: Nuclear receptor coactivator 3 (Homo sapiens) (UniProt Q9Y6Q9)
# Sequence (Q9Y6Q9 whole entry, looked up): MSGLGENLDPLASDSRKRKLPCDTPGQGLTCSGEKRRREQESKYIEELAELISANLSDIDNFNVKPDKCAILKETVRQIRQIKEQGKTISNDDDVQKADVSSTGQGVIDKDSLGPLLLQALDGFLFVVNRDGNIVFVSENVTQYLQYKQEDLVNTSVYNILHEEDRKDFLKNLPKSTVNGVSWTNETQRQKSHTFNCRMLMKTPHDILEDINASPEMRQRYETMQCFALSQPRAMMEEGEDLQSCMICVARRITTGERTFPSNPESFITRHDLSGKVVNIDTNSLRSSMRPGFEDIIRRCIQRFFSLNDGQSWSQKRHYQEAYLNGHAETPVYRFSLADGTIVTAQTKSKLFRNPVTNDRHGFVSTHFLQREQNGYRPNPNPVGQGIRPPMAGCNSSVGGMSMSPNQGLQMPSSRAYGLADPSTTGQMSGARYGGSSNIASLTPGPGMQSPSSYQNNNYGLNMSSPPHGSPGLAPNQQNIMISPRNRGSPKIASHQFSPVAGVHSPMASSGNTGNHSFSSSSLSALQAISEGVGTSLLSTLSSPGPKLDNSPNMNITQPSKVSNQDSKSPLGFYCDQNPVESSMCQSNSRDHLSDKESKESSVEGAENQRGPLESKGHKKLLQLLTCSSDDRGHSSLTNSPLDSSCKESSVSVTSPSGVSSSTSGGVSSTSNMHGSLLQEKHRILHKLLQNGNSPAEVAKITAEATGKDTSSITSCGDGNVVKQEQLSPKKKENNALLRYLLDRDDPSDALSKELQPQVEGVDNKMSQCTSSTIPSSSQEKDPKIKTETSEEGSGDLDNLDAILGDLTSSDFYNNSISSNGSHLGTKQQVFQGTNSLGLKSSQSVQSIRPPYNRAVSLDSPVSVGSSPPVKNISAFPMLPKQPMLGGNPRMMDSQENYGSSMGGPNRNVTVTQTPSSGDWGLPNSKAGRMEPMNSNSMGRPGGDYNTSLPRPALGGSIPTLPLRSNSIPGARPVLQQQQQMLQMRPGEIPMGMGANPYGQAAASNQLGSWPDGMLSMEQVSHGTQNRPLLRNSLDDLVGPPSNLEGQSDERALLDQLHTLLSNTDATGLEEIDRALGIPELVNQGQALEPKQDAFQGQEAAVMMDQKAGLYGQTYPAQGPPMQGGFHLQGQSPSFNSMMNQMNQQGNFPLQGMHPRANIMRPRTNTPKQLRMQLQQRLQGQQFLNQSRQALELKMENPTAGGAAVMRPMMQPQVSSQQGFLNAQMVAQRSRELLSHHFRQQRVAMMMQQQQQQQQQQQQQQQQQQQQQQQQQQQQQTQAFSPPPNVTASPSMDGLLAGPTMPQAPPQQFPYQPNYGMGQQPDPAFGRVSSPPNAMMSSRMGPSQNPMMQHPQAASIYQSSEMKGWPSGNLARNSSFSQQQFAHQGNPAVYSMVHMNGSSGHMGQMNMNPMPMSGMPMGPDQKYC
# assay_name: NCOA3 reporter inhibition potency – cell-based, luminescence, dose response (AID 602166);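 also: potency for reduction of SRC3 reporter signal so compounds are inhibitors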
# condition_description: SRC3 luciferase reporter cell assay
Calls of active or inactive are those of the source. How the calls were made is not given here.
Result category, one only: active, inactive

Here's what some known entries look like.
>  <molecule>
O=C(OCc1ccccc1)c1ccc(NCc2cc(O)ccc2O)cc1

>  <classification>
inactive

$$$$
>  <molecule>
COc1ccc(OC)c(Cc2cnc3nc(N)nc(N)c3c2C)c1

>  <classification>
active

$$$$
>  <molecule>
C(=Cc1cnc2ccccc2n1)c1ccc2c(c1)OCO2

>  <classification>
inactive

$$$$
>  <molecule>
COc1cc2c(cc1OC)C(C)N(C(=O)c1cccc([N+](=O)[O-])c1)CC2 (stereo unspecified)

>  <classification>
active

$$$$
>  <molecule>
CN(C)c1ccc(/C=C/c2ccc3ccccc3n2)cc1

>  <classification>
active

$$$$

Okay, now this molecule:
What is the recorded call for this molecule in the test? CCOc1ccccc1-n1c(SCC(=O)Nc2ccccc2C(=O)O)nc2ccccc2c1=O
inactive

====

# target_or_system: Nuclear receptor coactivator 3 (Homo sapiens) (UniProt Q9Y6Q9)
# assay_name: NCOA3 reporter inhibition potency – cell-based, luminescence, dose response (AID 602166);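 also: potency for reduction of SRC3 reporter signal so compounds are inhibitors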
# condition_description: SRC3 luciferase reporter cell assay
Activity calls are given as the source filed them. How the calls were made is not given here.
Returns: one label drawn from 1.0 for active, 0.0 for inactive

# count of solved cases: 5
>  <compound>
Nc1nc(CCl)nc(Nc2cccc3ccccc23)n1

>  <target_or_system>
Nuclear receptor coactivator 3 (Homo sapiens) (UniProt Q9Y6Q9)

>  <classification>
0.0

$$$$
>  <compound>
CN(C)c1ccc(C(=S)Nc2ccccc2)cc1

>  <target_or_system>
Nuclear receptor coactivator 3 (Homo sapiens) (UniProt Q9Y6Q9)

>  <classification>
0.0

$$$$
>  <compound>
Cc1ccc2nc(C(F)(F)F)c(C#N)c(N)c2c1

>  <target_or_system>
Nuclear receptor coactivator 3 (Homo sapiens) (UniProt Q9Y6Q9)

>  <classification>
0.0

$$$$
>  <compound>
Fc1ccc(CSc2nnc(-c3ccncc3)o2)cc1

>  <target_or_system>
Nuclear receptor coactivator 3 (Homo sapiens) (UniProt Q9Y6Q9)

>  <classification>
1.0

$$$$
>  <compound>
Nc1nccc(-c2ccc(-n3cnc4ccccc43)cc2)n1

>  <target_or_system>
Nuclear receptor coactivator 3 (Homo sapiens) (UniProt Q9Y6Q9)

>  <classification>
1.0

$$$$

For CC(=O)N1CCN(c2ncnc3ccccc23)CC1 , which call appears in the assay record?
1.0

Outcome? COc1cc(/C=C2\CC(C(C)(C)C)C/C(=C\c3cc(OC)c(OC)c(OC)c3)C2=O)cc(OC)c1OC (stereo not given)
0.0

Hi, do you know how CC(=O)/C(N=Nc1ccc2c(c1)OCCO2)=C(\C)O came out in this test?
0.0

Lab log entry: COc1ccc(Nc2ccncc2[N+](=O)[O-])cc1 — outcome as called in the assay?
1.0

Just curious, what result did COc1cc2oc(=O)cc(-c3ccc(-c4ccc(CO)cc4)cc3)c2c(OC)c1OC get here?
1.0

# lookup: test call for CCOc1ccc(-c2cc(C)n3nc(C(N)=O)cc3n2)cc1
1.0

Entry C(=N\Nc1nc2ccccc2[nH]1)/c1cccc2cccnc12 : call = ?
1.0

====

# target_or_system: Nuclear receptor coactivator 3 (Homo sapiens)
# assay_name: NCOA3 reporter inhibition potency – cell-based, luminescence, dose response (AID 602166);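 also: potency for reduction of SRC3 reporter signal so compounds are inhibitors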
# condition_description: SRC3 luciferase reporter cell assay
Active and inactive are the calls of the source. How the calls were made is not given here.
measure: IC50

The examples below pair each entry with its known result.
>  <compound>
C#CC(=O)N(c1cc(OC)ccc1OC)C(C(=O)NC1CCCC1)c1cccs1 (stereo not given)

>  <IC50>
> 35.9 µM (inactive)

$$$$
>  <compound>
COc1cccc(/C=N/Nc2cc(-n3nc(C)cc3-c3ccccc3)ncn2)c1O

>  <IC50>
4.12 µM

$$$$
>  <compound>
CCn1ccnc1CN(C)Cc1cn[nH]c1-c1ccc(OC)c(F)c1

>  <IC50>
4.91 µM

$$$$
>  <compound>
COC(=O)c1cc(S(=O)(=O)NCCc2ccc(Cl)cc2)c[nH]1

>  <IC50>
5.72 µM

$$$$
>  <compound>
O=c1[nH]cnc2c1nnn2C1OC(CO)C(O)C1O (stereo not given)

>  <IC50>
4.66 µM

$$$$
>  <compound>
CC1(C)N=C(N)N=C(N)N1CCCCc1ccccc1

>  <IC50>
3.98 µM

$$$$
>  <compound>
CCCCN1C=CC(=C2C(=O)c3ccccc3C2=O)C=C1

>  <IC50>
4.47 µM

$$$$
>  <compound>
COc1cc(C2c3cc4c(cc3C(OC3OC5COC(c6cccs6)OC5C(O)C3O)C3COC(=O)C23)OCO4)cc(OC)c1O (stereo not given)

>  <IC50>
0.093 µM

$$$$

Moving on to the next compound.
Answer with the recorded IC50 for the compound listed here: O=C(OCCC12CC3CC(CC(C3)C1)C2)c1ccc(NCc2cc(O)ccc2O)cc1
4.38 µM

====

# target_or_system: Nuclear receptor coactivator 3 (Homo sapiens) (UniProt Q9Y6Q9)
# assay_name: NCOA3 reporter inhibition potency – cell-based, luminescence, dose response (AID 602166);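 also: potency for reduction of SRC3 reporter signal so compounds are inhibitors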
# condition_description: SRC3 luciferase reporter cell assay
Calls of active or inactive are those of the source. How the calls were made is not given here.
measure: IC50

A selection of reference data follows.
>  <entry_smiles>
Nc1nc(=S)c2ncn([C@@H]3O[C@H](CO)[C@@H](O)[C@H]3O)c2[nH]1

>  <recorded_measurement>
2.55 µM

$$$$
>  <entry_smiles>
COc1ccc(OC)c(N/C=C/C(=O)c2ccccc2)c1

>  <recorded_measurement>
inactive

$$$$
>  <entry_smiles>
COc1ccc(C)cc1NS(=O)(=O)c1ccc(NC(=O)CN(c2cc([N+](=O)[O-])ccc2C)S(C)(=O)=O)cc1

>  <recorded_measurement>
inactive

$$$$
>  <entry_smiles>
COc1cccc(-c2nnc3sc(C4CCCCC4)nn23)c1

>  <recorded_measurement>
1.73 µM

$$$$

Dear colleague, please send me the reported IC50 for Cc1ccc(/C=C2/SC(=S)N(CCCC(=O)Nc3ccc(O)cc3)C2=O)cc1 when you can.
6.45 µM

====

# target_or_system: Nuclear receptor coactivator 3 (Homo sapiens)
# assay_name: NCOA3 reporter inhibition potency – cell-based, luminescence, dose response (AID 602166);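 also: potency for reduction of SRC3 reporter signal so compounds are inhibitors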
# condition_description: SRC3 luciferase reporter cell assay
Calls of active or inactive are those of the source. The rule behind the calls is not given here.
Choose the fitting class; nothing outside true (1) for active, false (0) for inactive is accepted.

Example results:
>  <compound>
CCc1ccc(/C=C2\SC(=S)N(CCCC(=O)NCCCN3CCOCC3)C2=O)cc1

>  <classification>
false (0)

$$$$
>  <compound>
CC(=O)Nc1ccc(SCC(=O)c2cc(C)n(-c3ccccc3)c2C)cc1

>  <classification>
false (0)

$$$$

Dear colleague, could you share the recorded outcome for OCCN1CCN(C(=S)c2ccc(-c3ccccc3)cc2)CC1 when you have a moment?
true (1)

Please state the recorded outcome for this compound: CC(=O)c1cccc(NC(=O)Nc2ccc3c(c2)N(C)C(=O)CS3)c1
false (0)

Called result for CC(=O)Nc1ccc(SCC(=O)c2cc(C)n(-c3ccccc3F)c2C)cc1
false (0)
